Hey, just so you know, these numbers are from patent US7994185B2.

target under test: BRAFV600E full-length (amino acids 2-766) (Homo sapiens, UniProt P15056, V600E)
Construct: His6-tagged BRAFV600E full-length (amino acids 2-766); His6; made in house; host or cells: baculovirus expression system (insect cells)
Sequence (P15056 2-766 V600E): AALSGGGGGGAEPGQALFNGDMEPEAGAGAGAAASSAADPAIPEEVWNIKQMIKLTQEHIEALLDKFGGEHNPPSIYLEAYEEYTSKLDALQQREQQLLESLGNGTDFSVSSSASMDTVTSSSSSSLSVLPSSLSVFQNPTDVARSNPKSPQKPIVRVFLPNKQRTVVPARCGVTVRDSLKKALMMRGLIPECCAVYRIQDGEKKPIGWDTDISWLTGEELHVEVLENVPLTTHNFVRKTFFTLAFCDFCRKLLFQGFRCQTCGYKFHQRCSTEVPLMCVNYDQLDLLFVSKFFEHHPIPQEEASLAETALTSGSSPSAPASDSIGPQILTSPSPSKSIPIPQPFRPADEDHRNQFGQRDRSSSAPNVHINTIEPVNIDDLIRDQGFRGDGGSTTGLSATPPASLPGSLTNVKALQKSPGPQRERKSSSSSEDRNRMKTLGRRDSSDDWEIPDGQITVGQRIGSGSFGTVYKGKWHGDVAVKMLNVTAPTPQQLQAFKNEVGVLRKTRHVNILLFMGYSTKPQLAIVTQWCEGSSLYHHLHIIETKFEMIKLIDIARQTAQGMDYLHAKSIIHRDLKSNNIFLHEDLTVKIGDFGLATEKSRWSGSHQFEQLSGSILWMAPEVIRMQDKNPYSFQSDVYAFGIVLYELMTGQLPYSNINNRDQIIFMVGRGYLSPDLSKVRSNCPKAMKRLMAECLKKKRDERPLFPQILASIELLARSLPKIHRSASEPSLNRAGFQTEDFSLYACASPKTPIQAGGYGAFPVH
experimental details: B-Raf Accelerated MEK ATPase assay (BRAMA)
Format: biochemical
measurement conditions: B-Raf pIC50, Table 1b; later runs, average pIC50 for the one or more runs, categorized

molecule: C[C@@H](O)CNc1nccc(-c2sc(C(C)(C)C)nc2-c2cccc(NS(=O)(=O)c3c(F)cccc3F)c2F)n1 [Example 290]
IC50: ≤ 3.16 nM
//
molecule: Nc1nccc(-c2sc(C3CCOCC3)nc2-c2cccc(NS(=O)(=O)c3cc(F)ccc3F)c2Cl)n1 [Example 242]
IC50: ≤ 3.16 nM
//
molecule: Nc1nccc(-c2sc(N3CCOCC3)nc2-c2cccc(NS(=O)(=O)c3cc(F)ccc3F)c2Cl)n1 [Example 156]
IC50: ≤ 3.16 nM
//
molecule: CC(C)c1nc(-c2ccc(F)c(NS(=O)(=O)c3c(F)cccc3F)c2)c(-c2ccnc(NCCCN3CCCC3=O)n2)s1 [Example 95]
IC50: 31.6 to 1000 nM
//
molecule: CC(C)c1nc(-c2cccc(NS(=O)(=O)c3c(F)cccc3F)c2)c(-c2ccnc(NCCS(C)(=O)=O)n2)s1 [Example 1]
IC50: ≤ 3.16 nM
//
molecule: CC(C)(C)c1nc(-c2cccc(NS(=O)(=O)c3c(F)cccc3F)c2F)c(-c2ccnc(NCCCS(C)(=O)=O)n2)s1 [Example 12]
IC50: ≤ 3.16 nM
//
molecule: Nc1nccc(-c2sc(N3CCOCC3)nc2-c2cccc(NS(=O)(=O)c3cc(F)ccc3F)c2F)n1 [Example 56]
IC50: ≤ 3.16 nM
//
molecule: CN(C)c1nc(-c2cccc(NS(=O)(=O)c3c(F)cccc3F)c2)c(-c2ccnc(N)n2)s1 [Example 112]
IC50: 31.6 to 1000 nM
//
molecule: O=S(=O)(Nc1cccc(-c2nc(C3CCOCC3)sc2-c2ccncn2)c1Cl)c1c(F)cccc1F [Example 26]
IC50: ≤ 3.16 nM
//
molecule: CC(C)c1nc(-c2ccc(F)c(NS(=O)(=O)c3cc(F)ccc3F)c2)c(-c2ccnc(NCC3CCN(C(=O)OC(C)(C)C)CC3)n2)s1 [Example 127]
IC50: 31.6 to 1000 nM
//
molecule: CC(C)CNc1nccc(-c2sc(N3CCOCC3)nc2-c2cccc(NS(=O)(=O)c3ccco3)c2F)n1 [Example 43]
IC50: ≤ 3.16 nM
//
molecule: C[C@H](O)CNc1nccc(-c2sc(C(C)(C)C)nc2-c2cccc(NS(=O)(=O)c3c(F)cccc3F)c2F)n1 [Example 291]
IC50: ≤ 3.16 nM

---

Documented IC50 across a set of molecules
target under test: BRAFV600E full-length (amino acids 2-766) (Homo sapiens, UniProt P15056, V600E)
Construct: His6-tagged BRAFV600E full-length (amino acids 2-766); His6; made in house; host or cells: baculovirus expression system (insect cells)
experimental details: B-Raf Accelerated MEK ATPase assay (BRAMA)
Format: biochemical
measurement conditions: B-Raf pIC50, Table 1b; later runs, average pIC50 for the one or more runs, categorized
Method: Compounds of the present invention were tested for B-Raf protein serine kinase inhibitory activity in a B-Raf Accelerated MEK ATPase assay (BRAMA). […] The BRAMA assay is a high sensitivity assay which measures an intrinsic MEK-mediated ATP hydrolysis uncoupled from downstream ERK phosphorylation by coupling the formation of ADP to NADH oxidation through the enzymes pyruvate kinase and lactate dehydrogenase. […]
property name: IC50

smiles text: CCOCCNc1nccc(-c2sc(C(C)(C)C)nc2-c2cccc(NS(=O)(=O)c3cc(F)ccc3F)c2F)n1
target under test: BRAFV600E full-length (amino acids 2-766) (Homo sapiens, UniProt P15056, V600E)
value observed: ≤ 3.16 nM
//
smiles text: CC(C)c1nc(-c2ccc(F)c(NS(=O)(=O)c3c(F)cccc3F)c2)c(-c2ccnc(NCCN(C)C)n2)s1
target under test: BRAFV600E full-length (amino acids 2-766) (Homo sapiens, UniProt P15056, V600E)
value observed: 31.6 to 1000 nM
//
smiles text: CC(C)c1nc(-c2cccc(NS(=O)(=O)c3c(F)cccc3F)c2)c(-c2ccnc(N)n2)s1
target under test: BRAFV600E full-length (amino acids 2-766) (Homo sapiens, UniProt P15056, V600E)
value observed: 31.6 to 1000 nM
//
smiles text: CC(C)CNc1nccc(-c2sc(C3CCOCC3)nc2-c2cccc(NS(=O)(=O)c3cc(F)ccc3F)c2F)n1
target under test: BRAFV600E full-length (amino acids 2-766) (Homo sapiens, UniProt P15056, V600E)
value observed: ≤ 3.16 nM

---

target under test: BRAFV600E full-length (amino acids 2-766) (Homo sapiens, UniProt P15056, V600E)
Construct: His6-tagged BRAFV600E full-length (amino acids 2-766); His6; made in house; host or cells: baculovirus expression system (insect cells)
experimental details: B-Raf Accelerated MEK ATPase assay (BRAMA)
Type: biochemical
measurement conditions: B-Raf Activity, Table 1a; highest pIC50 for the one or more runs, categorized
pIC50: −log10 of the molar value.
Measured pIC50 accompanies every entry in the list below.
property name: pIC50

compound: CC(C)c1nc(-c2cccc(NS(=O)(=O)c3cc(F)ccc3F)c2F)c(-c2ccnc(NCCNC(=O)OC(C)(C)C)n2)s1 [Example 189]
value observed: > 7.00

compound: CC(C)(C)c1nc(-c2cccc(NS(=O)(=O)c3c(F)cccc3F)c2F)c(-c2ccnc(NC3CCN(S(C)(=O)=O)CC3)n2)s1 [Example 78]
value observed: > 7.00

compound: CS(=O)(=O)CCCNc1nccc(-c2sc(N3CCOCC3)nc2-c2cccc(NS(=O)(=O)c3c(F)cccc3F)c2F)n1 [Example 15]
value observed: > 7.00

---

Entries and their IC50 values follow.
target under test: BRAFV600E full-length (amino acids 2-766) (Homo sapiens, UniProt P15056, V600E)
Construct: His6-tagged BRAFV600E full-length (amino acids 2-766); His6; made in house; host or cells: baculovirus expression system (insect cells)
experimental details: B-Raf Accelerated MEK ATPase assay (BRAMA)
Assay type: biochemical
measurement conditions: B-Raf Activity, Table 1a; highest pIC50 for the one or more runs, categorized
property name: IC50

compound: CC(C)c1nc(-c2cccc(NS(=O)(=O)c3cccc(F)c3)c2)c(-c2ccnc(NCC(=O)O)n2)s1 [Example 85]
target under test: BRAFV600E full-length (amino acids 2-766) (Homo sapiens, UniProt P15056, V600E)
property name: IC50
value observed: 100 to 1000 nM
--
compound: CC(C)c1nc(-c2cccc(NS(=O)(=O)c3cc(F)ccc3F)c2F)c(-c2ccnc(NCCN3CCCC3=O)n2)s1 [Example 190]
target under test: BRAFV600E full-length (amino acids 2-766) (Homo sapiens, UniProt P15056, V600E)
property name: IC50
value observed: < 100 nM
--
compound: CC(C)Nc1nccc(-c2sc(N3CCOCC3)nc2-c2cccc(NS(=O)(=O)c3c(F)cccc3F)c2F)n1 [Example 136]
target under test: BRAFV600E full-length (amino acids 2-766) (Homo sapiens, UniProt P15056, V600E)
property name: IC50
value observed: < 100 nM
--
compound: COc1ccc(F)cc1S(=O)(=O)Nc1cccc(-c2nc(C(C)C)sc2-c2ccnc(NC3CCN(S(C)(=O)=O)CC3)n2)c1 [Example 150]
target under test: BRAFV600E full-length (amino acids 2-766) (Homo sapiens, UniProt P15056, V600E)
property name: IC50
value observed: 100 to 1000 nM

---

target under test: BRAFV600E full-length (amino acids 2-766) (Homo sapiens, UniProt P15056, V600E)
Construct: His6-tagged BRAFV600E full-length (amino acids 2-766); His6; made in house; host or cells: baculovirus expression system (insect cells)
experimental details: B-Raf Accelerated MEK ATPase assay (BRAMA)
Format: biochemical
measurement conditions: B-Raf pIC50, Table 1b; later runs, average pIC50 for the one or more runs, categorized
property name: IC50

smiles text: Nc1nccc(-c2sc(C3CCNCC3)nc2-c2cccc(NS(=O)(=O)c3ccoc3)c2F)n1
value observed: ≤ 3.16 nM
--
smiles text: CC(C)c1nc(-c2ccc(F)c(NS(=O)(=O)c3cc(F)ccc3F)c2)c(-c2ccnc(NC3CC(C)(C)NC(C)(C)C3)n2)s1
value observed: ≤ 3.16 nM
--
smiles text: CC(C)c1nc(-c2cccc(NS(=O)(=O)c3cc(F)ccc3F)c2F)c(-c2ccnc(NCCNC(=O)OC(C)(C)C)n2)s1
value observed: ≤ 3.16 nM
--
smiles text: CC(C)c1nc(-c2cccc(NS(=O)(=O)c3cccc(F)c3)c2)c(-c2ccnc(NC3CC3)n2)s1
value observed: 31.6 to 1000 nM
--
smiles text: CC(=O)NCCCNc1nccc(-c2sc(C(C)C)nc2-c2cccc(NS(=O)(=O)c3cc(F)ccc3F)c2F)n1
value observed: ≤ 3.16 nM
--
smiles text: CC(C)CNc1nccc(-c2sc(N3CCOCC3)nc2-c2cccc(NS(=O)(=O)c3cccnc3)c2F)n1
value observed: ≤ 3.16 nM
--
smiles text: CC(C)(C)c1nc(-c2cccc(NS(=O)(=O)c3ccoc3)c2F)c(-c2ccncn2)s1
value observed: ≤ 3.16 nM
--
smiles text: O=C1CCCN1CCCNc1nccc(-c2sc(N3CCOCC3)nc2-c2cccc(NS(=O)(=O)c3cc(F)ccc3F)c2F)n1
value observed: ≤ 3.16 nM
--
smiles text: Nc1nccc(-c2sc(C3CCCCC3)nc2-c2cccc(NS(=O)(=O)c3cc(F)ccc3F)c2F)n1
value observed: ≤ 3.16 nM
--
smiles text: CC(C)c1nc(-c2cccc(NS(=O)(=O)C3CC3)c2)c(-c2ccnc(NCCS(C)(=O)=O)n2)s1
value observed: 31.6 to 1000 nM
--
smiles text: CC(C)(C)c1nc(-c2cccc(NS(=O)(=O)c3cccnc3)c2F)c(-c2ccnc(N)n2)s1
value observed: ≤ 3.16 nM
--
smiles text: O=S(=O)(Nc1cccc(-c2nc(C3CCOCC3)sc2-c2ccnc(NCCN3CCCC3)n2)c1F)c1ccoc1
value observed: ≤ 3.16 nM
--
smiles text: CC(C)(C)c1nc(-c2cccc(NS(=O)(=O)c3ccoc3)c2Cl)c(-c2ccncn2)s1
value observed: ≤ 3.16 nM
--
smiles text: Nc1nccc(-c2scnc2-c2cccc(NS(=O)(=O)c3c(F)cccc3F)c2)n1
value observed: 31.6 to 1000 nM
--
smiles text: CC(C)(N)c1nc(-c2cccc(NS(=O)(=O)c3ccoc3)c2F)c(-c2ccnc(N)n2)s1
value observed: ≤ 3.16 nM
--
smiles text: Nc1nccc(-c2sc(N3CCOCC3)nc2-c2cccc(NS(=O)(=O)c3ccco3)c2Cl)n1
value observed: ≤ 3.16 nM
--
smiles text: CC(C)c1nc(-c2cccc(NS(=O)(=O)c3cccnc3)c2)c(-c2ccnc(NCCS(C)(=O)=O)n2)s1
value observed: ≤ 3.16 nM
--
smiles text: O=S(=O)(Nc1cccc(-c2nc(N3CCOCC3)sc2-c2ccncn2)c1Cl)c1cc(F)ccc1F
value observed: ≤ 3.16 nM
--
smiles text: Cc1nccc(-c2sc(C(C)(C)N)nc2-c2cccc(NS(=O)(=O)c3c(F)cccc3F)c2F)n1
value observed: 31.6 to 1000 nM
--
smiles text: CC(C)c1nc(-c2ccc(F)c(NS(=O)(=O)c3cc(F)ccc3F)c2)c(-c2ccnc(N[C@H]3CCCN(C(=O)OC(C)(C)C)C3)n2)s1
value observed: 31.6 to 1000 nM
--
smiles text: CC(C)(C)c1nc(-c2c(F)ccc(NS(=O)(=O)c3cccc(F)c3)c2F)c(-c2ccncn2)s1
value observed: ≤ 3.16 nM
--
smiles text: CC(C)(C)c1nc(-c2cccc(NS(=O)(=O)c3ccoc3)c2Cl)c(-c2ccnc(N)n2)s1
value observed: ≤ 3.16 nM
--
smiles text: COCCNc1nccc(-c2sc(C(C)C)nc2-c2ccc(F)c(NS(=O)(=O)c3c(F)cccc3F)c2)n1
value observed: 31.6 to 1000 nM
--
smiles text: CC(C)c1nc(-c2cccc(NS(=O)(=O)c3c(F)cccc3F)c2F)c(-c2ccnc(NCCS(C)(=O)=O)n2)s1
value observed: ≤ 3.16 nM
--
smiles text: CC(C)CNc1nccc(-c2sc(C3CCOCC3)nc2-c2cccc(NS(=O)(=O)c3c(F)cccc3F)c2Cl)n1
value observed: ≤ 3.16 nM
--
smiles text: CC(C)CNc1nccc(-c2sc(C(C)C)nc2-c2cccc(NS(=O)(=O)c3ccco3)c2F)n1
value observed: ≤ 3.16 nM
--
smiles text: CC(C)Nc1nccc(-c2sc(N3CCOCC3)nc2-c2cccc(NS(=O)(=O)c3cc(F)ccc3F)c2F)n1
value observed: ≤ 3.16 nM
--
smiles text: CC(C)c1nc(-c2ccc(F)c(NS(=O)(=O)c3c(F)cccc3F)c2)c(-c2ccnc(NCCN3CCS(=O)(=O)CC3)n2)s1
value observed: 31.6 to 1000 nM
--
smiles text: CC(C)c1nc(-c2cccc(NS(=O)(=O)c3cc(F)ccc3F)c2F)c(-c2ccnc(NCCN3CCCC3=O)n2)s1
value observed: ≤ 3.16 nM
